System: CCRF-CEM
Assay: Cytotoxicity against human CEM cells
Format: cell-based
Exercise: for every item that follows, state its recorded CC50.
Expressed in µM, but write only the number.

## Input Check the records and state CC50 for "COC(=O)N[C@H](C(=O)N1C[C@H](N=[N+]=[N-])C[C@H]1c1nc(Cl)c(-c2ccc(-c3ccc(-c4[nH]c([C@@H]5C[C@@H](N=[N+]=[N-])CN5C(=O)[C@@H](NC(=O)OC)C(C)C)nc4Cl)cc3)cc2)[nH]1)C(C)C"
## Output 3.8

## Input Check the records and state CC50 for "COC(=O)N[C@H](C(=O)N1CCC[C@H]1c1nc(-c2ccccc2)c(-c2ccc(-c3ccc(-c4[nH]c([C@@H]5CCCN5C(=O)[C@@H](NC(=O)OC)C(C)C)nc4-c4ccccc4)cc3)cc2)[nH]1)C(C)C"
## Output 37.4

## Input Check the records and state CC50 for "COC(=O)N[C@H](C(=O)N1C[C@H](N=[N+]=[N-])C[C@H]1c1nc(Br)c(-c2ccc(-c3ccc(-c4[nH]c([C@@H]5C[C@@H](N=[N+]=[N-])CN5C(=O)[C@@H](NC(=O)OC)C(C)C)nc4Br)cc3)cc2)[nH]1)C(C)C"
## Output 10.8

## Input Check the records and state CC50 for "COC(=O)N[C@H](C(=O)N1C[C@H](N=[N+]=[N-])C[C@H]1c1ncc(-c2ccc(-c3ccc(-c4[nH]c([C@@H]5C[C@@H](N=[N+]=[N-])CN5C(=O)[C@@H](NC(=O)OC)C(C)C)nc4Cl)cc3)cc2)[nH]1)C(C)C"
## Output 31

## Input Check the records and state CC50 for "COC(=O)N[C@H](C(=O)N1CCC[C@H]1c1nc(Br)c(-c2ccc(-c3ccc(-c4[nH]c([C@@H]5CCCN5C(=O)[C@@H](NC(=O)OC)C(C)C)nc4Br)cc3)cc2)[nH]1)C(C)C"
## Output 5.7

## Input Check the records and state CC50 for "COC(=O)N[C@H](C(=O)N1CCC[C@H]1c1nc(Cl)c(-c2ccc(-c3ccc(-c4[nH]c([C@@H]5CCCN5C(=O)[C@@H](NC(=O)OC)C(C)C)nc4Cl)cc3)cc2)[nH]1)C(C)C"
## Output 12

## Input Check the records and state CC50 for "COC(=O)N[C@H](C(=O)N1C[C@H](n2cc(C(=O)OC)nn2)C[C@H]1c1ncc(-c2ccc(-c3ccc(-c4cnc([C@@H]5C[C@@H](n6cc(C(=O)OC)nn6)CN5C(=O)[C@@H](NC(=O)OC)C(C)C)[nH]4)cc3)cc2)[nH]1)C(C)C"
## Output 10.7

## Input Check the records and state CC50 for "COC(=O)N[C@H](C(=O)N1C[C@@H](N=[N+]=[N-])C[C@H]1c1nc(Cl)c(-c2ccc(-c3ccc(-c4[nH]c([C@@H]5C[C@H](N=[N+]=[N-])CN5C(=O)[C@@H](NC(=O)OC)C(C)C)nc4Cl)cc3)cc2)[nH]1)C(C)C"
## Output 4

## Input Check the records and state CC50 for "COC(=O)N[C@H](C(=O)N1CCC[C@H]1c1nc(F)c(-c2ccc(-c3ccc(-c4[nH]c([C@@H]5CCCN5C(=O)[C@@H](NC(=O)OC)C(C)C)nc4F)cc3)cc2)[nH]1)C(C)C"
## Output 3

## Input Check the records and state CC50 for "COC(=O)N[C@H](C(=O)N1C[C@@H](N=[N+]=[N-])C[C@H]1c1nc(Br)c(-c2ccc(-c3ccc(-c4[nH]c([C@@H]5C[C@H](N=[N+]=[N-])CN5C(=O)[C@@H](NC(=O)OC)C(C)C)nc4Br)cc3)cc2)[nH]1)C(C)C"
## Output 4.5

## Input Check the records and state CC50 for "COC(=O)N[C@H](C(=O)N1C[C@@H](N=[N+]=[N-])C[C@H]1c1ncc(-c2ccc(-c3ccc(-c4cnc([C@@H]5C[C@H](N=[N+]=[N-])CN5C(=O)[C@@H](NC(=O)OC)C(C)C)[nH]4)cc3)cc2)[nH]1)C(C)C"
## Output 18.4

## Input Check the records and state CC50 for "COC(=O)N[C@H](C(=O)N1CCC[C@H]1c1nc(-c2ccco2)c(-c2ccc(-c3ccc(-c4[nH]c([C@@H]5CCCN5C(=O)[C@@H](NC(=O)OC)C(C)C)nc4-c4ccco4)cc3)cc2)[nH]1)C(C)C"
## Output 2.9

## Input Check the records and state CC50 for "COC(=O)N[C@H](C(=O)N1CCC[C@H]1c1nc(I)c(-c2ccc(-c3ccc(-c4[nH]c([C@@H]5CCCN5C(=O)[C@@H](NC(=O)OC)C(C)C)nc4I)cc3)cc2)[nH]1)C(C)C"
## Output 35

## Input Check the records and state CC50 for "COC(=O)N[C@H](C(=O)N1CCC[C@H]1c1ncc(-c2ccc(-c3ccc(-c4[nH]c([C@@H]5CCCN5C(=O)[C@@H](NC(=O)OC)C(C)C)nc4F)cc3)cc2)[nH]1)C(C)C"
## Output 2.8
